# System: wild type Plasmodium falciparum
# procedureText: In vitro red blood cell culture infected with wild type Plasmodium falciparum, percent RBCs infected
# Assay type: cell-based
# assayContext: 48 hrs of treatment, 0.2 μM; control 35%
measuredMetric: Red Blood Cell Infection Rate (%)

- compound: "CCNc1nc(Cl)nc(NC(C)(C)C#N)n1 [cyanazine]"
  resultValue: 17
- compound: "CC(C)Nc1nc(Cl)nc(NC(C)C)n1 [propazine]"
  resultValue: 1
- compound: "CCNc1nc(Cl)nc(NC(C)C)n1 [atrazine]"
  resultValue: 0
- compound: "CCNc1nc(Cl)nc(NCC)n1 [simazine, 2-chloro-4,6-di(ethylamino)-s-triazine]"
  resultValue: 0
- compound: "CCN(CC)CCCC(C)Nc1ccnc2cc(Cl)ccc12 (stereo not drawn) [chloroquine, reference compound]"
  resultValue: 0
- compound: "CCNc1nc(NC(C)C)nc(SC)n1 [ametryn]"
  resultValue: 11
